target: human recombinant cytochrome P450 2C9 (Homo sapiens, UniProt P11712); assay: Biological Test Example 7: CYP2C9 inhibition ([O-methyl-14C]-Naproxen O-demethylation)
Sequence (P11712 whole entry): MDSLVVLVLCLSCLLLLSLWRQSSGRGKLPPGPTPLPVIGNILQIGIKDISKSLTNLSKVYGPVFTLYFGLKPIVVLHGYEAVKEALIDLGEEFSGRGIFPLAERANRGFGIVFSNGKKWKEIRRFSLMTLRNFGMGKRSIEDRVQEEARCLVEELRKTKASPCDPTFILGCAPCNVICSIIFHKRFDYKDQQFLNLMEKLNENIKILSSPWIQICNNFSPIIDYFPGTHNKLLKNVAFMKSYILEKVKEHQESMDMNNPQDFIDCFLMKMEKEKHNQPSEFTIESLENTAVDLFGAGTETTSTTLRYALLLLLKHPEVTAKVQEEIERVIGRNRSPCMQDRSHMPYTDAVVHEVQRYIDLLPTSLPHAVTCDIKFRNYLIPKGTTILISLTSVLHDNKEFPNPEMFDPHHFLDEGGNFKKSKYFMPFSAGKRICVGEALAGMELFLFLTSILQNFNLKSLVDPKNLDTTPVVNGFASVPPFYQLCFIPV
pIC50: −log10 of the molar value.

STRUCTURE: C[C@@H](c1ccc(-c2ccn(C3CC3)c(=O)c2)cc1)N1CC[C@](CC(C)(C)O)(c2ccccc2F)OC1=O
COMPARATOR: =
pIC50: 4.55
--
STRUCTURE: CCn1c(C)cc(-c2ccc([C@H](C)N3CC[C@](CC(C)(C)O)(c4ccccc4)OC3=O)cc2)cc1=O
COMPARATOR: =
pIC50: 4.46
--
STRUCTURE: C[C@@H](c1ccc(-c2ccn(CCF)c(=O)c2)cc1)N1CC[C@](CC(C)(C)O)(c2ccccc2)OC1=O
COMPARATOR: =
pIC50: 4.52
--
STRUCTURE: C[C@@H](c1ccc(-c2ccc(=O)[nH]c2)cc1)N1CC[C@](CC(C)(C)C#N)(c2ccccc2)OC1=O
COMPARATOR: =
pIC50: 4.77
--
STRUCTURE: C[C@@H](c1ccc(-c2ccc(=O)n(C)c2)cc1)N1CC[C@](CC(C)(C)C#N)(c2ccc(F)cc2)OC1=O
COMPARATOR: =
pIC50: 4.42
--
STRUCTURE: C[C@@H](c1ccc(-c2ccc(=O)n(C)c2)cc1)N1CC[C@](CC(C)(C)C#N)(c2ccccc2)OC1=O
COMPARATOR: =
pIC50: 4.54
--
STRUCTURE: C[C@@H](c1ccc(-c2ccn(C3CC3)c(=O)c2)cc1)N1CC[C@](CC(C)(C)O)(c2ccccc2)OC1=O
COMPARATOR: =
pIC50: 4.72
--
STRUCTURE: CC[C@@H](c1ccc(-c2ccn(C)c(=O)c2)cc1)N1CC[C@](CC)(c2ccccc2)OC1=O
COMPARATOR: =
pIC50: 5.52
--
STRUCTURE: Cc1cc(-c2ccc([C@H](C)N3CC[C@](CC(C)(C)O)(c4ccccc4)OC3=O)cc2)cn(C)c1=O
COMPARATOR: =
pIC50: 4.40
--
STRUCTURE: C[C@@H](c1ccc(-c2ccc(=O)n(CC3CC3)c2)cc1)N1CC[C@](CC(C)(C)O)(c2ccccc2)OC1=O
COMPARATOR: =
pIC50: 5.40
--
STRUCTURE: C[C@@H](c1ccc(-c2ccc(=O)n(C3CC3)c2)cc1)N1CC[C@](CC(C)(C)O)(c2ccccc2)OC1=O
COMPARATOR: =
pIC50: 4.42
--
STRUCTURE: CCn1ccc(-c2ccc([C@H](C)N3CC[C@](CC(C)(C)O)(c4ccccc4)OC3=O)cc2)cc1=O
COMPARATOR: <
pIC50: 4.30
--
STRUCTURE: CC(C)n1ccc(-c2ccc([C@H](C)N3CC[C@](CC(C)(C)O)(c4ccccc4)OC3=O)cc2)cc1=O
COMPARATOR: =
pIC50: 4.33
--
STRUCTURE: C[C@@H](c1ccc(-c2ccc(=O)n(C)c2)cc1)N1CC[C@](CCCO)(c2ccc(F)cc2)OC1=O
COMPARATOR: =
pIC50: 4.37
